TEST: CREB reporter modulators without forskolin, primary screen, cell-based, PC12, CRE-LacZ reporter, unstimulated (AID 1145)
TEST_CONDITIONS: no forskolin, luminescence, 4.5 h, higher = more signal, called active from +8 up or from −8 down
REPORTED_PROPERTY: z-score
Number only, no unit.

Some entries whose results are on file:
Name the reported z-score value associated with the compound CCOC(=O)NN=C1C[C@@H](O)[C@@H](O)[C@@H]2[C@@H]3C(=O)N(C(C)(C)C)C(=O)[C@@H]3CC[C@H]12
-0.295

Quick one: z-score of C=CC[C@@H]1C=C[C@H](ON=C(C)CCC(=O)OC[C@H]2O[C@H](C#Cc3ccccc3)C=C[C@@H]2Oc2ccc(C)cc2)[C@@H](CO)O1 ?
-0.306

New cases:
Query (compound): CO[C@H]1COC(=O)CC=C[C@H](C)[C@@H](OC)COC(=O)[C@@H](C)COC(=O)CC=C[C@@H]1C ; field requested: z-score
-0.292

* * *

Listing of recorded composite z-score by entry.
TEST: binders of probe aFST on microarray, primary screen, stem cell growth factor project, biochemical, small-molecule microarray, fluorescence 635/667 (AID 1086);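 further: score merges 667 nm fluorescence with signal-to-noise of each printed compound spot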
TEST_CONDITIONS: higher = more signal

Guide cases for composite z-score, answers given:
composite z-score lookup needed for C=CC[C@@H]1C=C[C@H](ON=C[C@@H](C)[C@H](OCc2ccccc2)C(C)C)[C@@H](CO)O1 , thanks.
-0.0578

# get_value(readout='composite z-score', item= COCOc1ccc(Br)cc1C(=O)[C@@H]1O[C@H]1c1cccc(OC)c1 )
-0.0156

More entries:
Report composite z-score for Cc1ccc(S(=O)(=O)NC(CCc2ccccc2)CC(=O)C(C)(C)C)cc1 (centres undefined) please.
0.195

What does the record list as composite z-score for CC(C)CCN1CCc2nc(COc3ccccc3)c3c(c2C1)CO[C@@H](C)C3 ?
0.138

* * *

z-score overview
TEST: basal S. cerevisiae growth modulation, no modifier, primary screen, OD600, strain BY4716, 24 h, basal condition (AID 1173)
TEST_CONDITIONS: OD600, 24 h, higher = more signal, called active from +8 up or from −8 down
Active and inactive are the calls of the source.

These solved cases illustrate the format of a correct answer.
If you can, please state the reported z-score value of COc1ccc(O[C@H]2C=C[C@@H](c3ccccc3)O[C@@H]2CON=C(C)C)cc1 .
-0.964 (inactive)

So what's the measured z-score for this one? CCOC(=O)[C@H](Cc1ccccc1)NC(=O)CCC1CC(OC(=O)NCCc2ccc(F)cc2)CC2(CCCC(COC(=O)NCc3ccccc3)O2)O1 (some centres not stated)
-0.298 (inactive)

# query: z-score of entry O=C1CCCC=C1C(O)CCOC(c1ccccc1)(c1ccccc1)c1ccccc1 (configuration not stated)
-0.529 (inactive)

Endpoint output: z-score of COc1cccc([C@H]2Oc3ccc(OC)cc3C(=NOC(C)CN3CCCCc4nc(C)c(C)cc43)[C@@H]2O)c1 (some centres not stated) . Value?
-0.951 (inactive)

Which z-score is reported for this compound? CC(CCC(=O)OC[C@H]1O[C@H](C#Cc2ccccc2)C=C[C@@H]1Oc1ccc(C)cc1)=NO[C@H](C)c1cn([C@H](CO)Cc2ccccc2)nn1
0.815 (inactive)

State the recorded z-score for this entry: COC(=O)[C@@H]1CC[C@H](C)[C@@H](c2ccc(C)cc2)N1C(=O)c1ccc(C=NO[C@H](C)c2cn([C@@H]3COC[C@H]3O)nn2)cc1
-0.225 (inactive)

As a next step, examine the compound that follows.
What measured z-score goes with CC(=O)OC[C@H]1OC(ON=CC[C@@H]2C=C[C@H](OC(C)=O)[C@@H](COC(C)=O)O2)[C@H](OC(C)=O)[C@@H](OC(C)=O)[C@@H]1OC(C)=O (some centres not stated) ?
0.352 (inactive)

* * *

TEST: CREB reporter modulators without forskolin, primary screen, cell-based, PC12, CRE-LacZ reporter, unstimulated (AID 1145)
TEST_CONDITIONS: no forskolin, luminescence, 4.5 h, higher = more signal, called active from +8 up or from −8 down
Decide by z-score: equal to or exceeding 0.3 means 1, less means 0.

Take a look at these entries with their results.
Exam item: decide whether the reported z-score for CC(CCN1CCCCc2nc(C)c(C)cc21)=NOC[C@@H](O)COCc1ccco1 is at least 0.3.
1

Item COC(=O)CC=C[C@@H](C)[C@@H](C=NO[C@@H](C)c1cn([C@H](CO)Cc2ccccc2)nn1)NS(=O)(=O)c1ccc(C)cc1 with z-score of 0.3 or above?
1

Is z-score at least 0.3? Consider C[C@@H](ON=C1[C@H]2CCn3c(=O)n(-c4ccccc4)c(=O)n3[C@H]2[C@H](O)[C@@H]2O[C@H]12)c1cn([C@@H]2COC[C@H]2O)nn1
0

Could you tell me if the measured z-score of COC(=O)CC=C[C@@H](C)[C@@H](C=NOC[C@H]1O[C@H](c2ccccc2)C=C[C@@H]1Oc1ccc(OC)cc1)NS(=O)(=O)c1ccc(C)cc1 reaches 0.3 or more?
1

Textbook exercise: given the entry CCCCC#C[C@@H]1C=C[C@H](Oc2ccc(C(=O)OC)cc2)[C@@H](COC(=O)OCC)O1 , state whether its z-score is greater than or equal to 0.3.
0

Continue with the next molecule.
Please indicate if the recorded z-score for C#CCCCON=C1C[C@@H](O)[C@@H](O)[C@@H]2[C@@H]3C(=O)N(CCC(=O)OCC)C(=O)[C@@H]3CC[C@H]12 meets or exceeds 0.3.
0

* * *

TEST: binders of probe aFGF10 on microarray, primary screen, stem cell growth factor project, biochemical, small-molecule microarray, fluorescence 635/667 (AID 1071);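 further: score merges 667 nm spot intensity and signal to noise from triplicate slides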
TEST_CONDITIONS: higher = more signal
REPORTED_PROPERTY: composite z-score
Just the number, please.

Answered cases to consult:
Query (molecule): C#CCCCON=C1[C@H]2CCn3c(=O)n(-c4ccccc4)c(=O)n3[C@H]2[C@H](O)[C@@H]2O[C@H]12 ; field requested: composite z-score
0.201

Item under review: C[C@@H]1C=CCC(=O)OC[C@H]2O[C@@H](C=C[C@@H]2O)[C@H](C)C=CCC(=O)OC1 . Reported composite z-score?
-0.32

Next:
Please give the measured composite z-score for this molecule: O=C1CCCC=C1C(O)CCCCBr (centres undefined)
0.0586

What value of measured composite z-score is listed for CON=Cc1ccc(C(=O)N2[C@H](c3ccc(C)cc3)[C@@H](C)CC[C@H]2C(=O)OC)cc1 ?
0.363

* * *

TEST: small-molecule binders of probe aInhba, primary screen, biochemical, small-molecule microarray, 635/667 nm fluorescence (AID 1148);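 further: score merges 667nm spot fluorescence with signal-to-noise for antibody binding to printed compounds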
TEST_CONDITIONS: higher = more signal
REPORTED_PROPERTY: composite z-score
The answer should be a number; do not append a unit.

Entry CO[C@H]1COC(=O)CCC[C@@H](C)[C@H](OC)COC(=O)[C@@H](C)NC(=O)CC=C[C@@H]1C : reported composite z-score = ?
-0.152

// returns reported composite z-score for input CCOC(=O)[C@H](Cc1ccccc1)NC(=O)CCC1CC(OC(=O)NCc2ccc3c(c2)OCO3)CC2(CCCC(COC(=O)NCCC(C)C)O2)O1 (some centres undefined)
0.0471

Value lookup for composite z-score; key = CCOC(=O)[C@H](Cc1ccccc1)NC(=O)CCC1CC(OC(=O)NCCc2ccc(F)cc2)CC2(CCCC(COC(=O)NCC3CCCCC3)O2)O1 (some centres undefined)
0.0074

Now let's try a different one.
Which composite z-score value belongs to COC(=O)[C@@H]1CC[C@@H](C)[C@H](c2ccc(Br)cc2)N1 ?
-0.249

* * *

TEST: small-molecule binders of probe aNOTCH3, primary screen, biochemical, small-molecule microarray, 635/667 nm fluorescence (AID 1120);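 further: probe is a biotin-tagged antibody raised against NOTCH3 rather than NOTCH3 protein; score merges spot fluorescence near 667 nm with spot signal to noise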
TEST_CONDITIONS: higher = more signal
Reported composite z-score is given for each of the following compounds.
Give a plain numeric answer without units written out.

Some compounds with known composite z-score results, for comparison:
Quick one: composite z-score of O=C1[C@H]2[C@H]3[C@H](O)[C@H](O)CC(=NOC[C@@H](O)COCc4ccco4)[C@H]3CC[C@H]2C(=O)N1Cc1ccccc1 ?
-0.119

Look up composite z-score: COc1ccc(O[C@H]2C=C[C@@H](c3ccccc3)O[C@@H]2CON=C(C)C)cc1
0.201

Data request, read-out composite z-score, for COC(=O)[C@H]1O[C@@H](c2c(OC)c(OC)c(C)c(OC)c2OC)[C@H](C)[C@@H](O)[C@H]1C
0.0414

State the recorded composite z-score for this entry: CCN1C(=O)[C@H]2[C@H]3[C@H](O)[C@H](O)CC(=NNC(=O)OCc4ccc(OC)cc4)[C@@H]3CC[C@H]2C1=O
0.0945

***
Name the reported composite z-score value associated with the compound CC(CCN1CCCc2nc(C)c(C)cc21)=NO[C@@H](C)c1cc(-c2c(C)cc(C)cc2C)no1
0.0789

What does the data say about its composite z-score? Entry: COCCNC(=O)OCC1CCCC2(CC(OC(=O)NCc3ccc4c(c3)OCO4)CC(CCC(=O)N[C@@H](C)C(=O)OC)O2)O1 (some centres undefined)
-0.0164

Which composite z-score is listed for COC(=O)CC=C[C@@H](C)[C@@H](C=NOCC[C@@H]1C=C[C@H](OC(C)=O)[C@@H](COC(C)=O)O1)OC ?
-0.0006

GET /values?readout=composite z-score&item= C#CCCCON=C1C[C@@H](O)[C@@H](O)[C@@H]2[C@@H]3C(=O)N(c4ccc(F)cc4F)C(=O)[C@@H]3CC[C@@H]12
-0.113

State the recorded composite z-score for this entry: CCO[C@H](c1cc(OC)cc([N+](=O)[O-])c1OC)[C@H](C)C=CCC(=O)OC
-0.0682
